System: RXRa DBDmut IVT, anti-RXR (DBD mutation: RXRa K156A/R161A, NR concentration 90 nM)
Experiment: PBM binding z-score (relative to random genomic background probes); higher = stronger binding; sequences stand for … in GC…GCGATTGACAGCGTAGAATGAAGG
Items are presented alongside their recorded PBM binding z-score.

Some solved entries appear below for comparison.
# residue codes, assayed system, PBM binding z-score
rows = [
    ("CAAACCAGGTCAAGGTCAAAGTCGGTTTGTGCCA", "RXRa DBDmut IVT, anti-RXR (DBD mutation: RXRa K156A/R161A, NR concentration 90 nM)", 3.39),
    ("CCTACTGGGCCAAGGGCATTGATCAGTCAAAGCA", "RXRa DBDmut IVT, anti-RXR (DBD mutation: RXRa K156A/R161A, NR concentration 90 nM)", -1.17),
    ("TAATATAGGTAAAGGTGAAAGTCGAACGATATGA", "RXRa DBDmut IVT, anti-RXR (DBD mutation: RXRa K156A/R161A, NR concentration 90 nM)", -0.417),
    ("ACTAGTTGGTCAGCTGAGGTCACAGACAATTCGG", "RXRa DBDmut IVT, anti-RXR (DBD mutation: RXRa K156A/R161A, NR concentration 90 nM)", 1.15),
    ("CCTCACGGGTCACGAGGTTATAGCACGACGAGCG", "RXRa DBDmut IVT, anti-RXR (DBD mutation: RXRa K156A/R161A, NR concentration 90 nM)", 1.43),
]

Form field, PBM binding z-score with RXRa DBDmut IVT, anti-RXR (DBD mutation: RXRa K156A/R161A, NR concentration 90 nM), item `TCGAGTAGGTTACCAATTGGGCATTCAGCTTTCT` : 0.484

Form field, PBM binding z-score with RXRa DBDmut IVT, anti-RXR (DBD mutation: RXRa K156A/R161A, NR concentration 90 nM), item `ACTAGCAGGCTAAGTTTGGGTCACTCAAACAAAG` : -0.349

Form field, PBM binding z-score with RXRa DBDmut IVT, anti-RXR (DBD mutation: RXRa K156A/R161A, NR concentration 90 nM), item `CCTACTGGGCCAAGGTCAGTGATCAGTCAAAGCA` : -0.721

Form field, PBM binding z-score with RXRa DBDmut IVT, anti-RXR (DBD mutation: RXRa K156A/R161A, NR concentration 90 nM), item `GTACCAAGGTGGATAGGTCGTTGATGAGTAGGCG` : -0.726

Form field, PBM binding z-score with RXRa DBDmut IVT, anti-RXR (DBD mutation: RXRa K156A/R161A, NR concentration 90 nM), item `CGAACGAGGGCCTGAGTTGATAGCAAATGCCGAT` : 0.337
